- System: Streptococcus pneumoniae
- protocol-notes: Antibacterial activity against moxifloxacin resistance selected Streptococcus pneumoniae 3009 with GyrA S81F and ParC D83N mutation after 10 antibiotic-free subcultures by macrodilution method
- Assay type: functional
MIC vs 0.03 µg/mL: less than gives y; not less than gives n.

INSERT INTO measurements (compound, category) VALUES
  ('CC[C@H]1OC(=O)[C@H](C)[C@@H](O[C@H]2C[C@@](C)(OC)[C@@H](O)[C@H](C)O2)[C@H](C)[C@@H](O[C@@H]2O[C@H](C)C[C@H](N(C)C)[C@H]2O)[C@](C)(O)C[C@@H](C)CN(C)[C@H](C)[C@@H](O)[C@]1(C)O [AZITHROMYCIN]', 'n'),
  ('CCCC[C@H](CN(O)C=O)C(=O)N1CCC[C@H]1C(=O)Nc1ccc(F)c[n+]1[O-]', 'n'),
  ('COc1c(N2CCNC(C)C2)c(F)cc2c(=O)c(C(=O)O)cn(C3CC3)c12 (stereo not drawn) [GATIFLOXACIN]', 'n'),
  ('C[C@@H](O)[C@H]1C(=O)N2C(C(=O)O)=C(SCCNC=N)C[C@H]12 [IMIPENEM ANHYDROUS]', 'y'),
  ('C=CC1=C(C(=O)O)N2C(=O)[C@@H](NC(=O)/C(=N\O)c3csc(N)n3)[C@H]2SC1', 'n'),
  ('CC[C@H]1OC(=O)[C@H](C)[C@@H](O[C@H]2C[C@@](C)(OC)[C@@H](O)[C@H](C)O2)[C@H](C)[C@@H](O[C@@H]2O[C@H](C)C[C@H](N(C)C)[C@H]2O)[C@](C)(OC)C[C@@H](C)C(=O)[C@H](C)[C@@H](O)[C@]1(C)O [CLARITHROMYCIN]', 'n');
